- protocolDetails: Oral bioavailability in cynomolgus monkey at […] by LC-MS/MS method
- Assay type: ADME, organism-based, Macaca fascicularis
- reportedConditions: in vivo
quantityName: bioavailability (%)
Return type: number; implicit unit %.

If you can, please state the reported bioavailability value of C[C@H]1Cc2c(nnn2-c2ncc(F)cn2)CN1C(=O)c1ccnc(C(F)(F)F)c1F .
97

###

Let's look at some molecules and their measured logD.
- protocolDetails: Partition coefficient, log D of the compound at pH 7.4
- Assay type: physicochemical
- reportedConditions: octanol/water
Just the number, please.

molecule: C[C@H]1Cc2c(nnn2-c2ncc(F)cn2)CN1C(=O)c1ccnc(C(F)(F)F)c1F [ZANVIPIXANT]
assayResult: 1.65

// below: logD requested for another molecule
Value lookup for logD; key = C[C@H]1Cc2c(nnn2-c2ncc(F)cn2)CN1C(=O)c1cccc(C(F)(F)F)c1F
2.23
